# assay target: T1, human PVRIG expressed on cells (human, UniProt Q6DKI7 41-326)
# T1 sequence (looked up): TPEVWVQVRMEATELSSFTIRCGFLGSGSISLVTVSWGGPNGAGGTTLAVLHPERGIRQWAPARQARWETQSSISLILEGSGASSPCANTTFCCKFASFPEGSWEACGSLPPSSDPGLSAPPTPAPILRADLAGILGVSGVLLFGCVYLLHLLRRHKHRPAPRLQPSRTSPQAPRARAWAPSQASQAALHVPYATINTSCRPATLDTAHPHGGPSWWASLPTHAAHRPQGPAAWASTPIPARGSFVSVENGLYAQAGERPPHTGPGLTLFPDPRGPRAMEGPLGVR
# run description: cell-based or functional assay
# PVRIG reporter gene cell activity EC50 values compiled below
Use nM as the unit, but write only the number.

{"binder": "anti-PVRIG antibody 39 (antibody, human IgG4 S228P, F234A L235A, V domains shown, no light chain) VH: QVQLVESGGGSVQAGGSLRLSCAASRYTSRTDCMGWFRQAPGKEREGVAHIDSDGIPRYVESVKGRFTISQDHAKNTLYLQMNSLKPEDSATYYCVVGFKFGDYCAPNDWGQGTQVTVSS", "readout kind": "PVRIG reporter gene cell activity EC50", "unit descriptor": "nM", "endpoint result": 0.06}
{"binder": "anti-PVRIG antibody 151 (antibody, human IgG4 S228P, F234A L235A, V domains shown, no light chain) VH: HVQLVESGGGSVQAGGSLRLSCVASASGFTYRPYCMAWFRQAPGKEREAVAGIDIFGGTTYADSVKGRFTASRDNAGFSLFLQMNDLKPEDTAMYYCAAGDSPDGRCPPLGQGLNYWGQGTQVTVSS", "readout kind": "PVRIG reporter gene cell activity EC50", "unit descriptor": "nM", "endpoint result": 0.04}
{"binder": "anti-PVRIG antibody 38 (antibody, human IgG4 S228P, F234A L235A, V domains shown, no light chain) VH: QVQLVESGGGSVQAGGSLRLSCAASPSTYGPSDMAWFRQAPGKQREGVATISAAGRLTYYTDSVRGRFTISRDNAKNTMYLQMNSLKPEDTAMYYCAADFAGGSSLFADYKYWGQGTQVTVSS", "readout kind": "PVRIG reporter gene cell activity EC50", "unit descriptor": "nM", "endpoint result": 0.2}
{"binder": "anti-PVRIG antibody 30 (antibody, human IgG4 S228P, F234A L235A, V domains shown, no light chain) VH: HVQLVESGGGSVQAGGSLRLSCEASGYSYSGDCMGWFRRAPGKERDEGVATIDNAGRIKYADSVKGRFTISHGNGKYILYLQMNSLKPEDTDMYYCAAGWTFGGNCSPADWGQGTQVTVSS", "readout kind": "PVRIG reporter gene cell activity EC50", "unit descriptor": "nM", "endpoint result": 0.06}

Pending binder:
For the binder positive antibody Tab5 (antibody, human IgG4 S228P, kappa, F234A L235A, V domains shown, Variable regions of CPA.7.021 (WO2016134333A1) on human IgG4 (S228P/F234A/L235A/K447A) and human kappa constant regions) VH: EVQLVESGGGVVKPGGSLRLSCAASGFTFGTSSMNWVRQAPGKGLEWVAVISFDGTEIHYADSVKGRFTISRDNSKSTVFLQMNSLRPDDTALYYCAKGSGNIYFYSGMDVWGQGTTVTVSS VL: DIQMTQSPSTLSASVGDRVTITCRAGQSISGWLAWFQQKPGKAPNLLIYETSTLESGVPSRFSGSGSGTEYTLTISSLQPDDFATYYCQQYYSYPLTFGQGTKVEIKR , give its reported PVRIG reporter gene cell activity EC50.
0.74
